- system.under.test: TrkA (histidine-tagged recombinant human TrkA, cytoplasmic domain) (Homo sapiens (Human), UniProt P04629)
- Sequence (P04629 440-796): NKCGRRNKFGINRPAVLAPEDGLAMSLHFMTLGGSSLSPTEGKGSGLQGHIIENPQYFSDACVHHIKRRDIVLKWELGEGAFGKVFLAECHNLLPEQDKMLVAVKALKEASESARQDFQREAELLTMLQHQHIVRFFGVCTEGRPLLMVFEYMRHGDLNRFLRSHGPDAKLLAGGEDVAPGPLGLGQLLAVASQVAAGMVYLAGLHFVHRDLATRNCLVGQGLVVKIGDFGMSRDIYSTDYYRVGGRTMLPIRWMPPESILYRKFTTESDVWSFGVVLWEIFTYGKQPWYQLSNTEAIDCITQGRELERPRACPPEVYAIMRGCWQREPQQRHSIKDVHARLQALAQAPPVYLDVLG
- assay.comment: TrkA ELISA Assay
- Assay type: biochemical
- setup.conditions: Table 1; ELISA, 500 μM ATP; read-out: TrkA Enzyme IC50
Reported IC50 values are given for each entry in this list.

| compound | IC50 |
| --- | --- |
| O=C(NC1CC1)c1cnn2ccc(N3CCC[C@@H]3c3cncc(F)c3)nc12 [Example 52] | 7.4 nM |
| COc1ncc(F)cc1[C@H]1CCCN1c1ccn2ncc(C(=O)Nc3ccn(C(C)C)n3)c2n1 [Example 244] | 38.2 nM |
| O=C(NC1(CO)CC1)c1cnn2ccc(N3CCC[C@@H]3c3cc(F)ccc3F)nc12 [Example 16] | 0.9 nM |
| Cn1cc(CNC(=O)c2cnn3ccc(N4CCC[C@@H]4c4cc(F)ccc4F)nc23)cn1 [Example 22] | 2.1 nM |
| O=C(NC1CC1)c1cnn2ccc(N3CCC[C@@H]3c3cc(F)ccc3F)nc12 [Example 13] | 0.5 nM |
| CC1(C)OCC(COc2ccc(F)cc2[C@H]2CCCN2c2ccn3ncc(C(N)=O)c3n2)O1 (some centres unmarked) [Example 205] | 14.3 nM |
| O=C(NCCN1CCNC1=O)c1cnn2ccc(N3CCC[C@@H]3c3cc(F)ccc3F)nc12 [Example 24] | 3.6 nM |
| NC(=O)c1cnn2ccc(N3CCC[C@@H]3c3cc(F)cc(OCCN4CCOCC4)c3)nc12 [Example 76] | 90 nM |
| C[C@@H](O)CNC(=O)c1cnn2ccc(N3CCCC3c3cc(F)ccc3F)nc12 (stereo in doubt) [Example 167] | 2.2 nM |
| Cc1ncc(F)cc1[C@H]1CCCN1c1ccn2ncc(C(=O)NC[C@@H](C)O)c2n1 [Example 189] | 76.4 nM |
| Cn1ccc(NC(=O)c2cnn3ccc(N4CCC[C@@H]4c4cc(F)ccc4F)nc23)n1 [Example 6] | 1.55 nM |
| O=C(NC1CCC1)c1cnn2ccc(N3CCC[C@@H]3c3cc(F)ccc3F)nc12 [Example 14] | 0.55 nM |
| Cc1ncc(F)cc1[C@H]1CCCN1c1ccn2ncc(C(=O)NC(C)(C)C)c2n1 [Example 183] | 6.9 nM |
| C[C@H](O)CNC(=O)c1cnn2ccc(N3CCC[C@@H]3c3cncc(F)c3)nc12 [Example 109] | 36.7 nM |
| CC1(C)CC[C@H](c2cc(F)ccc2F)N1c1ccn2ncc(C(N)=O)c2n1 [Example 67] | 5.1 nM |
| COCC(O)CNC(=O)c1cnn2ccc(N3CCCC3c3cncc(F)c3)nc12 (centres unmarked) [Example 119] | 131 nM |
| COCC(C)NC(=O)c1cnn2ccc(N3CCCC3c3cncc(F)c3)nc12 (centres unmarked) [Example 118] | 22.5 nM |

Where these numbers come from: patent US8791123B2
